Biological target: SARS-CoV-2 RBD-SD1-2 (residue 320-681) (SARS-CoV-2, Wuhan-Hu-1 (MN908947), UniProt P0DTC2)
Experiment: BLI
metric: binding result

Consider the following illustrative entries.
CC40.8 mAb (IgG) (antibody, V domains shown) VH: EVQLLESGGGLVQPGGSLRLSCAASGFTFSSYVMTWARQAPGKGLEWVSAISGTGYTYYADSVKGRFTVSRDNSKNTLFLQMSSLRAEDTAVYYCAITMAPVVWGQGTTVTVSS VL: SYELTQPPSVSVSPGQTARITCSGDALPKRYAYWYQQKSGQAPILVIYEDKKRPSGIPERLSGSKSGTVATLTISGAQVEDEADYYCYSTDSSGNHAVFGGGTQLTVL ... no binding
CC9.1 mAb (antibody, V domains shown) VH: EVQLVESGGGLVQPGRSLRLSCVAPGFTLGGYGMHWVRQAPGKGLEWVGLISYDGSVQKYGSSVKGRFTISKDNSKNTLYLEMNSLRADDTAVYFCVKGASLGDNWGQGTLVTVSS VL: EIVMTQSPLSLPVTLGQPASISCRSSQSLVYSDGDTYMSWFHQRPGQSPRRLIYKVSNRDSGVPDRFSGSGSGTDFTLKISRVEAEDVGVYYCMQGTHWPYTFGPGTKVEIK ... no binding
CC9.3 mAb (IgG) (antibody, V domains shown) VH: QVQLQESGPGLVKPSETLSLTCTVSGGSIRSDFWSWIRQFPGKGLEWIGYIYYSGSTNYNPSLESRVTISVDTSKNEFSLKLNYVTAADTAIYYCARETRWNWLDSWGQGTLVTVSS VL: DIVMTQSPDSLAVSLGERASINCKSSQTISYISNNKNYLAWYQQKPGQPPRLLIYWASTRESGVPDRFSGGGFGTDFTLTISSLQAEDVAVYYCQQYFNTPWTFGQGTKVEIK ... no binding
second SARS-CoV-2/HCoV-HKU1 cross-reactive mAb from the CC40 donor (other than CC40.8; name not printed in the text) (antibody, V domains shown) VH: EVQLVESGGGVVQPGRSLRLSCVASGFTFSNYGMHWVRQAPGKGLEWVAVMSYDGSVTYYGDSVRGRFTISRDNSKNTLYLQMSSLRTDDTGVYYCAKGQPLDDIWGLGTLVTVSS VL: EIVMTQSPLSLPVSLGQSASISCRSSQSLVHTDGITYLSWFQQRPGQSPRRLLYKVSNRDSGVPDRFSGSGSGTDFTLKISRVEAEDVGVYYCLQGTYWPWTFGQGTKVEIK ... no binding

Attention now shifts to the item below.
Field binding result (entry CC9.2 mAb (IgG) (antibody, V domains shown) VH: EVQLVESGGGLVQPGRSLRLSCVAPGFTLGGYGMHWVRQAPGKGLEWVGLISYDGSVQKYGSSVKGRFTISKDNSKNTLYLEMNSLRADDTAVYFCVKGASLGDNWGQGTLVTVSS VL: EIVMTQSPLSLPVTLGQPASISCRSSQSLVYSDGDTYMSWFHQRPGQSPRRLIYKVSNRDFGVPDRFSGSGSGTDFTLKISRVEAEDVGVYYCMQGTHWPYTFGPGTKVEIK ) reads no binding
